# Tested on: Cyclooxygenase enzyme (COX-1 and COX-2)
# assay_protocol: Cyclooxygenase Enzyme Activity Assay (isoform not stated for the result)
# Type: cell-based, human
# condition_set: COX-1 (THP-1) / COX-2 (HOSC) cell assays, PGE2 ELISA
# Description: Cyclooxygenase Enzyme Activity Assay The human monocytic leukemia cell line, THP-1, differentiated by exposure to phorbol esters expresses only COX-1; the human osteosarcoma cell line 143B expresses predominantly COX-2. […]
pIC50: −log10 of the molar value.
test_readout: pIC50

Input Cc1ccc(Nc2ccc(NC(=O)c3c(Cl)cccc3Cl)cn2)c(C)c1 . Output pIC50: ≥ 5.00
